This collection of values is drawn from patent US11135234B2.

Test system: S. aureus RN4220/pMS520
Test: MIC, agar plate dilution method, S. aureus RN4220/pMS520
Type: cell-based, Staphylococcus aureus
Conditions: Staphylococcus aureus, MRSA, read-out: minimal inhibitory concentration (MIC), S. aureus RN4220/pMS520, MRSA
reported-endpoint: log10 of MIC (log10 of the value in µg/mL)
Short version: log10 scale, MIC, µg/mL.

Input line: I'd like to know its log10 of MIC. The molecule in question is CNCC(=O)N[C@@H]1C(CO)O[C@H](OC2O[C@H]3C[C@H](N)[C@@H](O[C@@H]4C(N)C[C@@H](N)C[C@H]4O)OC3C(O)C2NC)C(O)[C@H]1O (stereo partly drawn) [Compound V1-p, 6-deoxy-5-epi-4″-N-sarcosylapramycin]
Output line: 0.00

Input line: Same again, this time with CNC1C(O[C@H]2OC(CO)[C@@H](NC(=N)N)[C@H](O)C2O)O[C@H]2CC(N)[C@@H](O[C@@H]3C(N)C[C@@H](N)C(O)[C@H]3F)OC2C1O (stereo partly drawn)
Output line: 0.00

Input line: Same again, this time with CNC1C(O[C@H]2OC(CO)[C@@H](NC(=O)[C@@H](O)CN)[C@H](O)C2O)O[C@H]2C[C@H](N)[C@@H](O[C@@H]3C(N)C[C@@H](N)C(O)[C@H]3O)OC2C1O (stereo partly drawn) [Compound V1-n, 5-epi-4″-N-(L-isoseryl)apramycin]
Output line: 0.30

Input line: Same again, this time with CNC1C(O[C@H]2OC(CO)[C@@H](N)[C@H](N)C2O)O[C@H]2CC(N)[C@@H](O[C@@H]3C(N)C[C@@H](N)C(O)[C@H]3O)OC2C1O (stereo partly drawn)
Output line: 0.90

Input line: Same again, this time with NCC[C@H](O)C(=O)N[C@@H]1C[C@H](N)[C@@H](O[C@H]2O[C@H](CN)[C@@H](O)[C@H](O)[C@H]2O)[C@H](O)[C@H]1O[C@H]1O[C@H](CO)[C@@H](O)[C@H](N)[C@H]1O [AMK, amikacin, reference compound]
Output line: 1.81

Input line: Same again, this time with CNC1C(O[C@H]2OC(C)[C@@H](N)[C@H](O)C2O)O[C@H]2CC(N)[C@@H](O[C@H]3CC[C@H](N)CC3N)OC2C1O (stereo partly drawn)
Output line: 0.30

Input line: Same again, this time with CNC1C(O[C@H]2OC(CO)[C@@H](NC(=O)[C@H](O)CN)[C@H](O)C2O)O[C@H]2C[C@H](N)[C@@H](O[C@@H]3C(N)C[C@@H](N)C(O)[C@H]3O)OC2C1O (stereo partly drawn) [Compound V1-s, 5-epi-4″-N-(D-isoseryl)apramycin]
Output line: 0.00

Input line: Same again, this time with CNC1C(O[C@H]2OC(CF)[C@@H](N)[C@H](O)C2O)O[C@H]2CC(N)[C@@H](O[C@@H]3C(N)C[C@@H](N)C(O)[C@H]3O)OC2C1O (stereo partly drawn)
Output line: 0.60

Input line: Same again, this time with CNC1C(O[C@H]2OC(CO)[C@@H](NC(=N)N)[C@H](O)C2O)O[C@H]2CC(N)[C@@H](O[C@H]3CC[C@H](N)CC3N)OC2C1O (stereo partly drawn)
Output line: -0.30
